- Test system: Tov112D
- procedure.details: Primary qHTS to identify gynecologic anti-cancer compounds using libraries of approved drugs and bioactive compounds (AID 1345084); also: nearly all actives have a fitted effect of over 55% in size
- reported.conditions: Gynecologic cancer cell panel viability, ATPlite luminescence, 48 h; series mostly up to 57.5 µM
Inconclusive results are not listed. Activity calls are given as the source filed them. Calls follow the shape of the dose curve; as a rule, active = well fitted cell-killing curve with a large enough effect; inconclusive = small, poorly fitted or top-dose-only effect, or effect the other way; inactive = flat fitted curve, though single readings scatter.
Select the correct class. Options are active, inactive and nothing else.

GET /call?item= OC(C#CCN1CCCC1)(c1ccccc1)c1ccccc1 returns the recorded outcome of this test.
inactive

GET /call?item= NC(=O)C1(N2CCCCC2)CCN(CCCC(=O)c2ccc(F)cc2)CC1 returns the recorded outcome of this test.
inactive

GET /call?item= C[C@H]1O[C@@H](O[C@H]2CC[C@@]3(C)[C@H](CC[C@@H]4[C@@H]3C[C@@H](O)[C@]3(C)[C@@H](C5=CC(=O)OC5)CC[C@]43O)C2)C[C@H](O)[C@@H]1O[C@H]1C[C@H](O)[C@H](O[C@H]2C[C@H](O)[C@H](O[C@@H]3O[C@H](CO)[C@@H](O)[C@H](O)[C@H]3O)[C@@H](C)O2)[C@@H](C)O1 returns the recorded outcome of this test.
active

* * *

- procedure.details: Confirmatory screen NINDS Rhodamine qHTS for Zika virus inhibitors (AID 1347161); also: potency is read from the fitted curve at half-maximal effect; nearly all actives have a fitted effect of over 60% in size
- reported.conditions: purified enzyme assay, Rhodamine110 substrate fluorescence, 15 min; series mostly up to 114 µM
Inconclusive results are not listed. The source made the active and inactive calls. Calls follow the shape of the dose curve; as a rule, active = well fitted inhibition curve with a large enough effect; inconclusive = small, poorly fitted or top-dose-only effect; inactive = no such curve, though single readings can be large or run the other way.
So I've got a bunch of molecules here, and I need their Potency values.

Identify measured Potency corresponding to Oc1c(Cl)cc(Cl)c(Cl)c1Cc1c(O)c(Cl)cc(Cl)c1Cl
3.55 µM (active)

Identify measured Potency corresponding to O=C(O)C(Cc1cc(I)c(O)c(I)c1)c1ccccc1 (centres undefined)
50.1 µM (active)

Identify measured Potency corresponding to CC1(COc2ccc(CC3SC(=O)NC3=O)cc2)CCCCC1 (centres undefined)
3.11 µM (active)

Identify measured Potency corresponding to CCC(CC)(CC(=O)Nc1cccc(/C=C/c2nc(C3CCC3)cs2)c1)C(=O)O
22.1 µM (active)

* * *

- procedure.details: Drug repurposing screens with cells derived from glioblastoma tumor samples (AID 1345199); also: % is scaled to controls: 0 for no effect and ±100 for the full control effect; nearly all actives have a fitted effect of over 40% in size
- reported.conditions: GBM patient neurospheres viability, ATP luminescence, 48 h; at 21.2 µM (top of the series); tumour line D
Records with an inconclusive call do not appear.
So I've got a bunch of compounds here, and I need their activity, negative = cell killing values.
// note: answer is a bare numeric in %

Identify measured activity, negative = cell killing corresponding to CCC1NC(=O)c2cc(S(N)(=O)=O)c(Cl)cc2N1 (stereo not given)
-14.7

Identify measured activity, negative = cell killing corresponding to O=C(O)CCC(=O)Nc1ccc(S(=O)(=O)Nc2nccs2)cc1
-10.2

Identify measured activity, negative = cell killing corresponding to C[N+]12CCC(CC1)C(OC(=O)C(O)(c1ccccc1)c1ccccc1)C2 (stereo not given)
-5.49

Identify measured activity, negative = cell killing corresponding to COc1cc(N)c(Cl)cc1C(=O)NC1CCN(Cc2ccccc2)CC1
-20.9

Identify measured activity, negative = cell killing corresponding to CC(C)(C)NCC(O)COc1cccc2c1C[C@H](O)[C@H](O)C2 (stereo not given in full)
-3.22

Identify measured activity, negative = cell killing corresponding to O=C1OC(CN2CCOCC2)CN1/N=C/c1ccc([N+](=O)[O-])o1 (stereo not given)
-3.22

Identify measured activity, negative = cell killing corresponding to CC[C@]12CCCN3CCc4c(n(c5ccccc45)C(=O)C1)[C@@H]32
-29.4

Identify measured activity, negative = cell killing corresponding to O=C1C(CCS(=O)c2ccccc2)C(=O)N(c2ccccc2)N1c1ccccc1 (stereo not given)
2.83

Identify measured activity, negative = cell killing corresponding to CCCCNc1ccc(C(=O)OCCOCCOCCOCCOCCOCCOCCOCCOCCOC)cc1
-6.38

Identify measured activity, negative = cell killing corresponding to CC(C(=O)O)c1cccc(Oc2ccccc2)c1 (stereo not given)
-19.7

Identify measured activity, negative = cell killing corresponding to CCOC(=O)Nc1ccc2c(c1)N(C(=O)CCN1CCOCC1)c1ccccc1S2
-19.6

Identify measured activity, negative = cell killing corresponding to CCCc1ncc(C[n+]2ccccc2C)c(N)n1
-1.64

Identify measured activity, negative = cell killing corresponding to CC[C@H](c1ccc(O)cc1)[C@@H](CC)c1ccc(O)cc1
-30

Identify measured activity, negative = cell killing corresponding to CCN1CCCC(OC(=O)C(c2ccccc2)c2ccccc2)C1 (stereo not given)
-10.7

Identify measured activity, negative = cell killing corresponding to CCOC(=O)c1ccc(N)cc1
-25.1

Identify measured activity, negative = cell killing corresponding to COc1ccc(C(=O)c2ccccc2O)c(O)c1
-15.3

Identify measured activity, negative = cell killing corresponding to CCCCC(CC)CN1CN(CC(CC)CCCC)CC(C)(N)C1 (stereo not given)
-24

Identify measured activity, negative = cell killing corresponding to CCO[C@@H]1O[C@H](C(COCc2ccccc2)OCc2ccccc2)[C@H](OCc2ccccc2)[C@H]1O (stereo not given in full)
-23.7

Identify measured activity, negative = cell killing corresponding to Cc1c(-c2ccccc2)oc2c(C(=O)OCCN3CCCCC3)cccc2c1=O
-18.3

Identify measured activity, negative = cell killing corresponding to COc1cc(NS(=O)(=O)c2ccc(N)cc2)ncn1
-16.4
